Molecular target: hGcgR (Homo sapiens, UniProt P47871)
Sequence (P47871 26-477): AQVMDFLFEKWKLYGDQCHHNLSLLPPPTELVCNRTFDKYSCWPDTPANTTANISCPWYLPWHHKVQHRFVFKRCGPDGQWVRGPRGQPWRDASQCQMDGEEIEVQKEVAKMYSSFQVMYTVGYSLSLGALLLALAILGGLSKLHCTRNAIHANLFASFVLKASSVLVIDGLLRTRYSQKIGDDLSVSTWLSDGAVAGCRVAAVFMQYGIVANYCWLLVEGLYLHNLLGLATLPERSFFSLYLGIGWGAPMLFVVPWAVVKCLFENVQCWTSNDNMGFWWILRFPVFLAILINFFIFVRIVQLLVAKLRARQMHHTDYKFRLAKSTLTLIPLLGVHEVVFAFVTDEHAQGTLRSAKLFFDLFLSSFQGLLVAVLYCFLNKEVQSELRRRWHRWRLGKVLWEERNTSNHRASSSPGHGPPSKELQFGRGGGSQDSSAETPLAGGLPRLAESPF
Experiment: Functional cAMP activation in the presence of 0.1% casein (no HSA);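 also: intracellular cAMP rise after 30 min at 37 °C, read by HTRF against a cAMP standard curve, scaled from buffer only (0%) to maximal control ligand response (100%)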
Type: cell-based
Conditions: in the presence of 0.1% casein (no HSA); geometric mean; read-out: Relative cAMP EC50, hGcgR
Starred links: 1 amine or outer side, 2 acyl side, 3 side chain; linkers in the order of their positions; H or OH if unused. Non-standard residues stand in square brackets, D forms with d. Groups on a side chain read outwards from the residue. No end group written: not given here. *: point of attachment. C18 diacid = O=C(O)CCCCCCCCCCCCCCCCC(=O)*; γGlu = O=C(O)[C@H](CCC(=O)[*:2])N[*:1]; αMe4Pal = C[C@](N)(Cc1ccncc1)C(=O)O; αMeY = C[C@](N)(Cc1ccc(O)cc1)C(=O)O; 4Pal = N[C@@H](Cc1ccncc1)C(=O)O; αMeL = CC(C)C[C@](C)(N)C(=O)O; Orn = NCCC[C@H](N)C(=O)O; AEEA = NCCOCCOCC(=O)O; Aib = CC(C)(N)C(=O)O
value_type: pEC50
Notebook: values listed as pEC50 are -log10 of the concentration (mol/L).

Entry H-Y[Aib]QGTFTSD[4Pal]S[Orn][αMeL]LD[Orn]K([γGlu-γGlu-C18 diacid])AQ[Aib]AFIE[αMeY]LLEGGPSSGAPPPSGSEE-NH2 [Example 1064] , pEC50 reported as 7.86

Entry H-Y[Aib]QGTFTSD[4Pal]SQ[αMeL]LDKK([AEEA-γGlu-C18 diacid])AQ[αMe4Pal]AFIEYLIE[Aib]GPSSGAPPPSGSE-NH2 [Example 886] , pEC50 reported as 8.38

Entry Y[Aib]QGTFTSD[4Pal]SQ[αMeL]LD[Orn]K([dE-γGlu-C18 diacid])AQ[αMe4Pal]AFIE[αMeY]LLEGGPSSGAPPPSGSEE-NH2 [Example 1058] , pEC50 reported as 8.24
